System Name: F1F0-ATPase (Bos taurus, UniProt P13621)
Construct: from tissue
Assay Procedure: Inhibition of F1F0-ATPase activity in synthesizing ATP (ATP synthesis inhibition)
Assay type: biochemical
Cond: detection limit IC50=16 μM, read-out: ATP Syn IC50
Exercise: state measured IC50 for each of the compounds provided.

INSERT INTO measurements (smiles_code, quantity_measured, test_result) VALUES
  ('Cc1nnsc1C(=O)/N=C(\Nc1cc(-c2ccc(F)cc2)[nH]n1)NC1CCCC1', 'IC50', '> 16 µM');

Items follow; give IC50 for each.
1. Cc1oncc1C(=O)N=C(Nc1cc(-c2ccc(Cl)cc2)n[nH]1)NC(C)C
2. Cc1oncc1C(=O)N=C(Nc1cc(-c2cc(F)cc(Cl)c2)n[nH]1)NC1CCCC1
3. CC(C)(C)CN/C(=N/C(=O)c1ccc(Cl)s1)Nc1cc(C(F)(F)F)n[nH]1

Completion:
> 16 µM
< 5 µM
< 5 µM

Values were extracted from patent US9221814B2.
